In this section, each of the molecules is paired with its reported fraction of intact chelate.
experiment: Dissociation of chelates in aq. 6.0M HCl at 80° C. (acid decomplexation kinetic inertness) (Chart 17); assay type: physicochemical; conditions: 1 day

Use the examples below as a reference point.
In [3]: df
Out[3]:
                                   molecule  readout_value
0  O=C1C[N@@]2CC[N@]3CC[N@@](CC[N@](CC2)Cc2cccc(n2)-c2cn(nn2)Cc2cc(-c4ccccc4)cc(n2)C3)CC(=O)[O][Cd][O]1 [TD900]             0%
1  O=C1C[N@@]2CC[N@]3CC[N@@](CC[N@](CC2)Cc2cccc(n2)-c2cnnn2Cc2cc(-c4ccccc4)cc(n2)C3)CC(=O)[O][Ho][O]1 [TD648]            81%

Q: What measured fraction of intact chelate goes with O=C1C[N@@]2CC[N@]3CC[N@@](CC[N@](CC2)Cc2cccc(n2)-c2cnnn2Cc2cc(-c4ccccc4)cc(n2)C3)CC(=O)[O][Yb][O]1 [TD602] ?
A: 100%

Q: What measured fraction of intact chelate goes with O=C1C[N@@]2CC[N@]3CC[N@@](CC[N@](CC2)Cc2cccc(n2)-c2cnnn2Cc2cc(-c4ccccc4)cc(n2)C3)CC(=O)[O][La][O]1 [TD651] ?
A: 0%

Q: What measured fraction of intact chelate goes with O=C1C[N@@]2CC[N@]3CC[N@@](CC[N@](CC2)Cc2cccc(n2)-c2cnnn2Cc2cc(-c4ccccc4)cc(n2)C3)CC(=O)[O][Nd][O]1 [TD868] ?
A: 0%

Q: What measured fraction of intact chelate goes with O=C1C[N@@]2CC[N@]3CC[N@@](CC[N@](CC2)Cc2cccc(n2)-c2cnnn2Cc2cc(-c4ccccc4)cc(n2)C3)CC(=O)[O][Tm][O]1 [TD601] ?
A: 99%

Q: What measured fraction of intact chelate goes with O=C1C[N@@]2CC[N@]3CC[N@@](CC[N@](CC2)Cc2cccc(n2)-c2cnnn2Cc2cc(-c4ccccc4)cc(n2)C3)CC(=O)[O][Lu][O]1 [TD522] ?
A: 100%
